Value source: patent US20210301026A1

- targetEntity: T1, monomeric cynomolgus monkey CSF1R ectodomain protein (cynomolgus monkey, UniProt P07333 20-517 (human entry))
- T1 construct: also called monomeric cyno CSF1R; Cyno CSF1R
- T1 chain: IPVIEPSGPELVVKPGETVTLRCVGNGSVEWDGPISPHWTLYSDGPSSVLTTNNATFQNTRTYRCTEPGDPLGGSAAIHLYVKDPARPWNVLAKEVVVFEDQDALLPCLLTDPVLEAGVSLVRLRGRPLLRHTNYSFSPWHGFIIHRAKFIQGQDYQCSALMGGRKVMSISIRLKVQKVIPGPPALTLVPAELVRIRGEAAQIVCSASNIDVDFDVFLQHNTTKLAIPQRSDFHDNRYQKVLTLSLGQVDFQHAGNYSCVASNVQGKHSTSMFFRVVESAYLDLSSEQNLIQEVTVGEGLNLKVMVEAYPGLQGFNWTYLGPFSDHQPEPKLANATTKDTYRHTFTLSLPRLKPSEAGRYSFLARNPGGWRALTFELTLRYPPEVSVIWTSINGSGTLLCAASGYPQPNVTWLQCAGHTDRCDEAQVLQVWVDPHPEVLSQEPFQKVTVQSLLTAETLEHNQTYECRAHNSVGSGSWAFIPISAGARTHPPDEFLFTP
- protocolDetails: SPR Biacore, IgG captured, monomeric CSF1R analyte
pKd: −log10 of the molar value.
In this section we review reported pKd values for a set of binders.
readoutType: pKd

1. MH21 (antibody, human IgG4, V domains shown, Deimmunized MH5 derivative, human IgG4(S228P)/Ckappa IgG) VH: QVQLVQSGAEVKKPGSSVKVSCKASGYTFSSSYMIWVRQAPGQGLEWMGDINPYNGGANYAQKFQGRVTITADESTSTAYMELSSLRSEDTAVYYCAREGPYFSNLYVMDYWGQGTLVTVSS VL: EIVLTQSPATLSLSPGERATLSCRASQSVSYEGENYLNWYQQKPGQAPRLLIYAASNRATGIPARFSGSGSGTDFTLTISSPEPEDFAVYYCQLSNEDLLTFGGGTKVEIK; 8.74
2. murine anti-CSF1R antibody 0301 (mu0301), v-domains in human IgG4(S228P) format (antibody, V domains shown) VH: EVQLQQSGPELVRPGASVKMSCKASGYTFTDNYMIWVKQSHGKSLEWIGDINPYNGGTTFNQKFKGKATLTVEKSSSTAYMQLNSLTSEDSAVYYCARESPYFSNLYVMDYWGQGTSVTVSS VL: NIVLTQSPASLAVSLGQRATISCKASQSVDYDGDNYMNWYQQKPGQPPKLLIYAASNLESGIPARFSGSGSGTDFTLNIHPVEEEDAATYYCHLSNEDLSTFGGGTKLEIK; 10.00
3. MH13 (antibody, human IgG4, V domains shown, Deimmunized MH5 derivative, human IgG4(S228P)/Ckappa IgG) VH: QVQLVQSGAEVKKPGSSVKVSCKASGYTFSSNYMIWVRQAPGQGLEWMGDINPYNGGANYAQKFQGRVTITADESTSTAYMELSSLRSEDTAVYYCAREGPYFSNLYVMDYWGQGTLVTVSS VL: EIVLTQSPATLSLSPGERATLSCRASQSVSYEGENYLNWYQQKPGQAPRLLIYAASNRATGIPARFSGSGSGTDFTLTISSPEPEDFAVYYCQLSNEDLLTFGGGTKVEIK; 9.14
4. MH20 (antibody, human IgG4, V domains shown, Deimmunized MH5 derivative, human IgG4(S228P)/Ckappa IgG) VH: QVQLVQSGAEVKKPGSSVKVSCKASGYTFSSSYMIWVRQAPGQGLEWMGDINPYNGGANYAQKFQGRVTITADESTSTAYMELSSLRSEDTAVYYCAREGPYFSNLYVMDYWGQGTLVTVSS VL: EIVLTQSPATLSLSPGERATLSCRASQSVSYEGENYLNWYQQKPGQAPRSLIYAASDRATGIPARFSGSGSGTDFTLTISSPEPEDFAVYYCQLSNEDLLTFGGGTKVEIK; 8.91
5. MH16 (antibody, human IgG4, V domains shown, Deimmunized MH5 derivative, human IgG4(S228P)/Ckappa IgG; also called mAb-5) VH: QVQLVQSGAEVKKPGSSVKVSCKASGYTFSSAYMIWVRQAPGQGLEWMGDINPYNGGANYAQKFQGRVTITADESTSTAYMELSSLRSEDTAVYYCAREGPYFSNLYVMDYWGQGTLVTVSS VL: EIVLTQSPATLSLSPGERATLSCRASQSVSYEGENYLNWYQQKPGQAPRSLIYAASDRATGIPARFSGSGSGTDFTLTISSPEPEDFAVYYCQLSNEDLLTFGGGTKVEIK; 9.11
6. MH12 (antibody, human IgG4, V domains shown, Deimmunized MH5 derivative, human IgG4(S228P)/Ckappa IgG; also called mAb-4) VH: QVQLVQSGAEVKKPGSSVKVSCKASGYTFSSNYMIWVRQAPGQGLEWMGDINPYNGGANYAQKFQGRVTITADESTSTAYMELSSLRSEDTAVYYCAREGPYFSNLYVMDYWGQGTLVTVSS VL: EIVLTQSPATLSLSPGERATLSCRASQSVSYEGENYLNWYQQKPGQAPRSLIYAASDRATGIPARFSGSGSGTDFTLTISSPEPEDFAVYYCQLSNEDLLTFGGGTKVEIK; 9.25
7. MH17 (antibody, human IgG4, V domains shown, Deimmunized MH5 derivative, human IgG4(S228P)/Ckappa IgG) VH: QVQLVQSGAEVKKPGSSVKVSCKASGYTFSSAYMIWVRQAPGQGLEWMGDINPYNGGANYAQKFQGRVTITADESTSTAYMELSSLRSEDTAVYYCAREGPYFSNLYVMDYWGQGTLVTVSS VL: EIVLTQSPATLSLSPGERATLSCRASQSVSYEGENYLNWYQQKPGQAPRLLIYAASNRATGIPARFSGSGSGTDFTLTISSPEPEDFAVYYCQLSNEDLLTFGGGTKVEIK; 8.88
8. MH25 (antibody, human IgG4, V domains shown, Deimmunized MH5 derivative, human IgG4(S228P)/Ckappa IgG) VH: QVQLVQSGAEVKKPGSSVKVSCKASGYTFSSHYMIWVRQAPGQGLEWMGDINPYNGGANYAQKFQGRVTITADESTSTAYMELSSLRSEDTAVYYCAREGPYFSNLYVMDYWGQGTLVTVSS VL: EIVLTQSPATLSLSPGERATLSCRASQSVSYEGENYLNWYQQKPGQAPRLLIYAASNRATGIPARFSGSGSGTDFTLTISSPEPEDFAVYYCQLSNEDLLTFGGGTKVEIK; 8.99
9. MH41 (antibody, human IgG4, V domains shown, Deimmunized MH5 derivative, human IgG4(S228P)/Ckappa IgG; also called MN41) VH: QVQLVQSGAEVKKPGSSVKVSCKASGYTFSSHYMIWVRQAPGQGLEWMGDINPYNGGANYAQKFQGRVTITADESTSTAYMELSSLRSEDTAVYYCAREGPYFSNLYVMDYWGRGTLVTVSS VL: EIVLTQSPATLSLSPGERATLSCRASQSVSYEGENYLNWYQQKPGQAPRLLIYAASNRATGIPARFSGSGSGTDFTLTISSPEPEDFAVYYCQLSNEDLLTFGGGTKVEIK; 8.84
